System: IGFBP-1
Assay: IGFBP-1 mRNA expression in HepG2 cells
Type: cell-based, human
Details: Experiment 2, insulin treated: HepG2 cells transfected with oligomeric compound, 1 nM insulin for four hours; UTC + 1 nM insulin = 100
In the oligonucleotide strings, read from the 5' end, every base follows the letter of its sugar. An asterisk marks phosphorothioate; unmarked linkages are phosphodiester. Other units and linkages are bracketed, terminal groups are in braces. A string of capitals states the bases alone. e = 2'-O-(2-methoxyethyl) (MOE); [5mC] = 5-methylcytosine; d = 2'-deoxy (DNA)
assay.endpoint: IGFBP1 mRNA expression
# answer = number (no unit)

Solved cases (4 shown):
328649 (eG*eT*eA*eG*eA*dT*dA*dA*d[5mC]*dT*dA*dA*dA*d[5mC]*dA*e[5mC]*eT*eA*e[5mC]*e[5mC]; antisense) [compound 328649]
115
328114 (antisense eA*eA*eT*e[5mC]*eT*e[5mC]*eA*eT*eT*eT*eT*e[5mC]*eA*eT*eA*e[5mC]*eT*eT*eG*e[5mC]*eA) [compound 328114]
177
327965 (antisense eA*eT*e[5mC]*eA*e[5mC]*eA*eT*eA*eG*eG*eA*eA*eT*eA*eA*eA*eA*eA*eG*e[5mC]*e[5mC]*eA*eT*eA) [compound 327965]
105
327961 (antisense eG*eG*eG*eG*eT*eA*eT*eT*eT*eG*eA*e[5mC]*eA*eA*eA*e[5mC]*eT*eG*eA*e[5mC]*eA) [compound 327961]
160

Consider the record given below.
So what's the measured IGFBP1 mRNA expression for this one? 327959 (antisense e[5mC]*eA*eG*e[5mC]*e[5mC]*eG*e[5mC]*eT*eG*eT*e[5mC]*eA*e[5mC]*eA*e[5mC]*eG*e[5mC]*eA*e[5mC]*eA*eG) [compound 327959]
141

----------
Tested on: HeLa cells
Assay: Cell cycle assay in HeLa cells
Type: cell-based, human
Conditions: HeLa cells, 150 nM oligomeric compound, 48 hours after treatment; relative to untreated control (UTC=100)
In the oligonucleotide strings, read from the 5' end, every base follows the letter of its sugar. An asterisk marks phosphorothioate; unmarked linkages are phosphodiester. Other units and linkages are bracketed, terminal groups are in braces. A string of capitals states the bases alone. e = 2'-O-(2-methoxyethyl) (MOE); [5mC] = 5-methylcytosine; d = 2'-deoxy (DNA)
% cells in cell cycle phase: aneuploid values for the substances below.
Write the number in % without appending the unit.

338797 (antisense CTGGGGAGGGGGTTAGCGTC; all 2'-MOE, all phosphorothioate, methylation of C not given here) [compound 338797]
175

% cells in cell cycle phase: aneuploid for 345373 (AGCCTATCCTGGATTACTTGAA; sugars from the 5' end e5 d10 e7, all phosphorothioate, methylation of C not given here) [compound 345373] ?
119

Which % cells in cell cycle phase: aneuploid reading was recorded for the substance 327910 (antisense eT*eG*eA*eT*eA*eG*e[5mC]*e[5mC]*e[5mC]*eT*eG*eT*eA*e[5mC]*eA*eA*eT*eG*e[5mC]*eT*eG*e[5mC]*eT) [compound 327910] ?
92

Tell me the measured % cells in cell cycle phase: aneuploid of 327949 (antisense e[5mC]*eA*e[5mC]*eA*eA*eA*eT*eT*e[5mC]*eG*eG*eA*eT*e[5mC]*eT*eA*e[5mC]*eA*eG*eG*eG*eT*eA) [compound 327949] , please.
71

// % cells in cell cycle phase: aneuploid lookup, key: 327877 (antisense e[5mC]*eG*e[5mC]*e[5mC]*eA*eA*eT*eA*eT*eT*eT*eA*e[5mC]*eG*eT*eG*e[5mC]*eT*eG*e[5mC]*eT*eA) [compound 327877]
80
